test-target: human CB1 receptor (Homo sapiens, UniProt P21554)
Sequence (P21554 whole entry): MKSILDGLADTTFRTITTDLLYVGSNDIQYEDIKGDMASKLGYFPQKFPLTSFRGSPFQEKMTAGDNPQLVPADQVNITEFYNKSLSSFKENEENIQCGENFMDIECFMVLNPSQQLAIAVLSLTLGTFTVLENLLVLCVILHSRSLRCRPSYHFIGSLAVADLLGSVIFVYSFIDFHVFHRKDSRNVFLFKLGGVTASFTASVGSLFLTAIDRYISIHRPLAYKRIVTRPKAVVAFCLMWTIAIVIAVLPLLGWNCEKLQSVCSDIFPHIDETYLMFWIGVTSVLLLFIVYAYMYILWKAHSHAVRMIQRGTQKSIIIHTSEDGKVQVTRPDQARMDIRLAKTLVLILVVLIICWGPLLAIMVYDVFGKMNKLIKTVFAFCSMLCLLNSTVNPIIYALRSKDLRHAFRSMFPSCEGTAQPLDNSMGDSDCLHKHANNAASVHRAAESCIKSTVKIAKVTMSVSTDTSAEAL
assay-info: [35S] GTPγS binding on membranes of CHO cells expressing the human CB1 receptor (agonism)
Format: biochemical
Set-up: expressed in transfected cells; membrane preparation
study-conditions: GTPγS EC50, human CB1, CHO cell membranes
Would you mind telling me the reported pEC50 of each entry?
On this scale, pEC50 is minus log10 of a concentration expressed in M (mol/L).

Param item: CC(C)(C)C(NC(=O)c1nn(Cc2ccc(F)cc2)c2ccc(F)cc12)C(=O)NCC(N)=O (stereo not drawn) [Example 173] ; param system: human CB1 receptor (Homo sapiens, UniProt P21554); output pEC50: 8.29

The molecule CC(C)(C)[C@H](NC(=O)c1nn(Cc2ccc(F)cc2)c2ccccc12)C(=O)N1CCC[C@H]1CO [Example 306] , when measured on human CB1 receptor (Homo sapiens, UniProt P21554), yielded pEC50 of 8.86

For CC(C)(C)[C@H](NC(=O)c1nn(Cc2ccc(F)cc2)c2ccccc12)C(=O)N1CCC[C@H]1C(N)=O [Example 292] on human CB1 receptor (Homo sapiens, UniProt P21554), measured pEC50 was 7.72

Entry CC(C)(C)[C@H](NC(=O)c1nn(Cc2ccc(F)cc2)c2ccccc12)C(=O)NC[C@H]1C[C@H]1CO [Example 492] , tested on human CB1 receptor (Homo sapiens, UniProt P21554), has a reported pEC50 of 8.01

I looked up CC(C)(C)C(NC(=O)c1nn(Cc2ccccc2)c2ccccc12)C(N)=O (stereo not drawn) [Example 27] and its pEC50 for human CB1 receptor (Homo sapiens, UniProt P21554) was 7.83

Kindly note: human CB1 receptor (Homo sapiens, UniProt P21554), CC(C)(C)[C@H](NC(=O)c1nn(Cc2ccc(F)cc2)c2ccccc12)C(=O)NCC1CCOCC1 [Example 211] , pEC50 value reported: 7.74

// assay human CB1 receptor (Homo sapiens, UniProt P21554), entry CC(C)(C)C(NC(=O)c1nn(Cc2ccc(F)cc2)c2ccccc12)C(=O)NC1CC1 (stereo not drawn) [Example 80] , pEC50 value = 8.74

Entry Cc1cc(NC(=O)[C@@H](NC(=O)c2nn(Cc3ccc(F)cc3)c3ccccc23)C(C)(C)C)sn1 [Example 514] : pEC50 on human CB1 receptor (Homo sapiens, UniProt P21554) = 7.48

human CB1 receptor (Homo sapiens, UniProt P21554) data for CC(C)(C)C(NC(=O)c1nn(Cc2ccc(C#N)cc2)c2ccccc12)C(=O)N1CCC(O)CC1 (stereo not drawn) [Example 134] ; its pEC50: 6.49

Lab note: molecule CC(C)(C)[C@H](NC(=O)c1nn(Cc2ccc(F)cc2)c2c(F)c(F)ccc12)C(=O)NC[C@@H](O)CO [Example 322] tested on human CB1 receptor (Homo sapiens, UniProt P21554); recorded pEC50 was 6.96

// pEC50 (human CB1 receptor (Homo sapiens, UniProt P21554)) for CC(C)(C)[C@H](NC(=O)c1nn(Cc2ccc(C#N)cc2)c2c(F)cccc12)C(=O)NC[C@H](O)CO [Example 113] = 6.73

Record Cc1noc(CNC(=O)C(NC(=O)c2nn(Cc3ccc(C#N)cc3)c3ccccc23)C(C)(C)C)n1 (stereo not drawn) [Example 140] / human CB1 receptor (Homo sapiens, UniProt P21554), pEC50 recorded as 6.19

# pEC50 measured on human CB1 receptor (Homo sapiens, UniProt P21554) for item CC(C)(C)C(NC(=O)c1nn(Cc2ccc(F)cc2)c2ccccc12)C(=O)N1CCC(O)CC1 (stereo not drawn) [Example 133] = 8.20

pEC50 on human CB1 receptor (Homo sapiens, UniProt P21554) for CC(C)(C)[C@H](NC(=O)c1nn(Cc2ccc(C#N)cc2)c2c(F)cccc12)C(N)=O [Example 111] is 8.01

Form field pEC50 for item CC(C)(C)C(NC(=O)c1nn(Cc2ccc(C#N)cc2)c2c(Cl)cccc12)C(=O)NCC(N)=O (stereo not drawn) [Example 201] on human CB1 receptor (Homo sapiens, UniProt P21554): 7.15

Record for CC(C)(C)[C@H](NC(=O)c1nn(Cc2ccc(C#N)cc2F)c2c(F)cccc12)C(=O)NC1CC1 [Example 373] under target or system human CB1 receptor (Homo sapiens, UniProt P21554): pEC50 reported as 7.94

Tested system human CB1 receptor (Homo sapiens, UniProt P21554); pEC50 recorded for CC(C)(C)[C@H](NC(=O)c1nn(Cc2ccc(C#N)cc2)c2c(F)cccc12)C(=O)NC(CO)CO [Example 117] was 6.77

I looked up CC(C)(C)C(NC(=O)c1nn(Cc2ccc(C#N)cc2)c2ccc(F)cc12)C(N)=O (stereo not drawn) [Example 163] and its pEC50 for human CB1 receptor (Homo sapiens, UniProt P21554) was 6.74

human CB1 receptor (Homo sapiens, UniProt P21554) data for CC(C)(C)[C@H](NC(=O)c1nn(Cc2ccccn2)c2ccccc12)C(N)=O [Example 6] ; its pEC50: 6.80

For the molecule CC(C)(C)[C@H](NC(=O)c1nn(Cc2ccc(F)cc2)c2ccccc12)C(=O)NCc1nn[nH]n1 [Example 218] , the measured pEC50 on human CB1 receptor (Homo sapiens, UniProt P21554) was 6.44

Considering Cc1noc(CNC(=O)C(NC(=O)c2nn(Cc3ccc(F)cc3)c3ccccc23)C(C)(C)C)n1 (stereo not drawn) [Example 139] , its pEC50 with human CB1 receptor (Homo sapiens, UniProt P21554) was recorded as 8.20

Entry CC(C)(C)C(NC(=O)c1nn(Cc2ccccc2C#N)c2ccccc12)C(N)=O (stereo not drawn) [Example 30] under human CB1 receptor (Homo sapiens, UniProt P21554) had pEC50 of 7.10

// assay human CB1 receptor (Homo sapiens, UniProt P21554), entry CC(C)(C)[C@H](NC(=O)c1nn(Cc2ccc(F)cc2)c2c(F)c(F)ccc12)C(=O)NC[C@H](O)CO [Example 323] , pEC50 value = 7.65

With human CB1 receptor (Homo sapiens, UniProt P21554) as the test system, CC(C)(C)[C@H](NC(=O)c1nn(Cc2ccc(F)cc2)c2ccccc12)C(=O)NCC1CNC(=O)O1 (stereo partly drawn) [Example 315] showed pEC50 of 8.06

Short answer on human CB1 receptor (Homo sapiens, UniProt P21554) for CC(C)(C)[C@H](NC(=O)c1nn(Cc2ccc(F)cc2)c2ccccc12)C(=O)N1CCOCC1 [Example 242] , pEC50: 8.47

pEC50 value, target or system human CB1 receptor (Homo sapiens, UniProt P21554), for CC(C)(C)[C@H](NC(=O)c1nn(Cc2ccc(F)cc2)c2ccccc12)C(=O)NCC1CCC(=O)N1 (stereo partly drawn) [Example 404] : 7.42

Known value: human CB1 receptor (Homo sapiens, UniProt P21554) pEC50 of the molecule Cc1cc2c(C(=O)N[C@H](C(=O)NC[C@H](O)CO)C(C)(C)C)nn(Cc3ccc(F)cc3)c2cc1F [Example 510] equals 7.61

Tested system human CB1 receptor (Homo sapiens, UniProt P21554); pEC50 recorded for CC(C)(C)C(NC(=O)c1nn(Cc2ccc(F)cc2)c2c(Cl)cccc12)C(=O)NCC(N)=O (stereo not drawn) [Example 185] was 7.99

Form field, pEC50 with human CB1 receptor (Homo sapiens, UniProt P21554), item CC(C)(C)[C@H](NC(=O)c1nn(Cc2ccccc2F)c2ccccc12)C(N)=O [Example 13] : 7.92

# CC(C)(C)[C@H](NC(=O)c1nn(Cc2ccc(F)cc2)c2c(F)cccc12)C(=O)NCCC(N)=O [Example 476] with human CB1 receptor (Homo sapiens, UniProt P21554): pEC50 is 7.50

---

test-target: human CB1 receptor (Homo sapiens)
assay-info: Human CB1 receptor binding, [3H] CP-55,940 displacement on HEK cell membranes
Set-up: expressed in transfected cells; host or cells: HEK cells, doxycycline-induced; membrane preparation
study-conditions: CB1 Ki
For each of the compounds below, state its pKi.
In textbook form, pKi equals minus log to base ten of the concentration in mol/L.

Sample COc1cccc(CNC(=O)c2nn(Cc3ccccc3)c3ccccc23)c1 [Example 43] ; pKi observed: 7.57

Record CC(C)NC(=O)[C@@H](NC(=O)c1nn(Cc2ccc(F)cc2)c2ccc(Cl)cc12)C(C)(C)C [Example 437] , field pKi: 8.55

Entry CC(C)NC(=O)[C@@H](NC(=O)c1nn(Cc2ccc(C#N)cc2)c2ccc(Cl)cc12)C(C)(C)C [Example 450] , pKi reported as 6.62

Record Cc1cc(CNC(=O)[C@@H](NC(=O)c2nn(Cc3ccc(F)cc3)c3ccccc23)C(C)(C)C)no1 [Example 425] . Reported pKi: 9.04

---

test-target: UniProt P21554
assay-info: [35S] GTPγS binding on membranes of CHO cells expressing the human CB1 receptor (agonism)
Type: biochemical
Parameters: expressed in transfected cells; membrane preparation
study-conditions: GTPγS EC50, human CB1, CHO cell membranes
For each record, write down the corresponding pEC50.
API: returns pEC50 as number; meaning -log10 of concentration in mol/L.

Record Cc1cc2c(C(=O)N[C@H](C(=O)NCCS(N)(=O)=O)C(C)(C)C)nn(Cc3ccc(F)cc3)c2cc1F . Reported pEC50: 7.50

Form field pEC50, entry CC(C)(C)[C@H](NC(=O)c1nn(Cc2ccc(C#N)cc2)c2c(F)cccc12)C(=O)NCC(F)(F)F : 8.59

Quick note, pEC50 for CC(C)(C)[C@H](NC(=O)c1nn(Cc2ccc(F)cc2)c2ccccc12)C(=O)N1CCCC(F)(F)C1 landed at 8.43

So for CC(C)(C)[C@H](NC(=O)c1nn(Cc2ccc(F)cc2)c2ccccc12)C(=O)NC1CCCOC1 (stereo partly shown) , the logged pEC50 turned out to be 7.67

Measured pEC50 of CC(C)(C)[C@H](NC(=O)c1nn(Cc2ccc(C#N)cc2)c2cc(F)ccc12)C(=O)NC1CC1 : 7.62

Memo: CC(C)(C)[C@H](NC(=O)c1nn(Cc2ccccc2)c2ccccc12)C(=O)NC[C@H](O)CO , reported pEC50: 6.66

Note to self: pEC50 recorded for CC(C)(C)C(NC(=O)c1nn(Cc2ccc(C#N)cc2)c2ccc(F)cc12)C(=O)NCCO (stereo not shown) was 6.88
